Measured values drawn from patent US20200054643A1 for this set.

Catalogue of IC50 values
molecular target: ALK1/ACVR1 (Homo sapiens, UniProt P37023); assay: BMP Type 1 receptor assay, ALK1/ACVR1; assay type: biochemical
Sequence (P37023 22-503): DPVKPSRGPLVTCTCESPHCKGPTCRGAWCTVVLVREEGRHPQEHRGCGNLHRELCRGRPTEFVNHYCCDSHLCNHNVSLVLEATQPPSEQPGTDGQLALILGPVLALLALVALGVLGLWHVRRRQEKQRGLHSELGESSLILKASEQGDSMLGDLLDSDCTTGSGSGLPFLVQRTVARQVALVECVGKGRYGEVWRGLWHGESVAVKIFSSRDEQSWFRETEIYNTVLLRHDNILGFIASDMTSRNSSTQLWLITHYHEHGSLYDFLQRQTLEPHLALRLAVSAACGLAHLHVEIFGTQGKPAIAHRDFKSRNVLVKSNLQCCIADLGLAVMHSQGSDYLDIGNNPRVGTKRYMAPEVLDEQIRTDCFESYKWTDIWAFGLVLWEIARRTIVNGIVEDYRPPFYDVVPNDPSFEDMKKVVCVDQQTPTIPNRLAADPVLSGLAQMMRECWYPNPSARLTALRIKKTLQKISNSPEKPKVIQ
Numeric answer only, unit nM assumed.

COMPOUND: CC(C)Oc1ccc(-c2ccn3c(-c4cn[nH]c4)cnc3c2)cc1 [Entry 42]
IC50, nM: 494

Continue with the compound presented below.
**Query** Reported IC50, compound CC(C)Oc1ccc(-c2ccn3c(-c4ccnc(Cl)c4)cnc3c2)cc1 [Entry 25] : ____
**Result** 87

----------
Catalogue of IC50 values
biological target: ALK5/TGFBR1 (Homo sapiens, UniProt P36897); assay: BMP Type 1 receptor assay, ALK5/TGFBR1; assay type: biochemical
Sequence (P36897 34-503): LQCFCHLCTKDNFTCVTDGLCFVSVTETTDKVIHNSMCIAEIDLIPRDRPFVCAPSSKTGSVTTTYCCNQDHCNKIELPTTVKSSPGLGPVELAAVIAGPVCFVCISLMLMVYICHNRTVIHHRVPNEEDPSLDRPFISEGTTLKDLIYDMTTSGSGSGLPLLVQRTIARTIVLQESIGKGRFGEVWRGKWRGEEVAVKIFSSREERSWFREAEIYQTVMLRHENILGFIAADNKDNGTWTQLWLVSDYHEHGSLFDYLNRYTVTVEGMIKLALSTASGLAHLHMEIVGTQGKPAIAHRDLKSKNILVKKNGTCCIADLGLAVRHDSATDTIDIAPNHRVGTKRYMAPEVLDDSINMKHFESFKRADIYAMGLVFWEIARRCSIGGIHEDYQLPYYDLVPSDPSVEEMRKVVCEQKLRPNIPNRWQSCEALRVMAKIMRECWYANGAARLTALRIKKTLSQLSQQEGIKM
Numeric answer only, unit nM assumed.

MOLECULAR_STRING: CC(C)Oc1ccc(-c2ccn3c(-c4ccnc(Cl)c4)cnc3c2)cc1
IC50 / nM: 13600

**Query** Reported IC50, compound "CN1CCN(c2ccc(-c3ccn4c(-c5ccnc6ccccc56)cnc4c3)cc2)CC1" : ____
**Result** 3960

**Query** Reported IC50, compound "Cc1cc(-c2cnc3cc(-c4ccc(OC(C)C)cc4)ccn23)ccn1" : ____
**Result** 3490

----------
biological target: ALK3/BMPRR1A (Homo sapiens); experiment: BMP Type 1 receptor assay, ALK3/BMPRR1A; format: biochemical
Sequence (P36894 24-532): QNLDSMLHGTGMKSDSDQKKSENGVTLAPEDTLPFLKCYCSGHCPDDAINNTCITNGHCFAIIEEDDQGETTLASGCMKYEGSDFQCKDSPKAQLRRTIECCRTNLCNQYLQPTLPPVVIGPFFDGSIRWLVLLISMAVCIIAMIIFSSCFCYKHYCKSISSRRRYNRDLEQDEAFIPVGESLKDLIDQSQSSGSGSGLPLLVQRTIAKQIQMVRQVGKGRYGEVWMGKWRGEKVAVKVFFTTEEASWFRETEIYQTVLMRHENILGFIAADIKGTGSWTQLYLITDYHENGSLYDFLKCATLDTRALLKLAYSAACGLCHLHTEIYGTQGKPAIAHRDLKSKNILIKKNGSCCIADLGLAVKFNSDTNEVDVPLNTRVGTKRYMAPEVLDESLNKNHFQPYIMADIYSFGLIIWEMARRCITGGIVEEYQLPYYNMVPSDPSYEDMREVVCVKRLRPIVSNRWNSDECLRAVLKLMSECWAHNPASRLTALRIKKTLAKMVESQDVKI
Cut-off 50 nM on IC50: below means true (1), at or above means false (0).

Answered cases to consult:
MOLECULE: CN1CCN(c2ccc(-c3ccn4c(-c5ccnc6ccccc56)cnc4c3)cc2)CC1 [Entry 21]
CAT: true (1)
--
MOLECULE: CC(C)Oc1ccc(-c2ccn3c(-c4ccnc(Cl)c4)cnc3c2)cc1 [Entry 25]
CAT: false (0)
--
MOLECULE: CC(C)Oc1ccc(-c2ccn3c(-c4cn[nH]c4)cnc3c2)cc1 [Entry 42]
CAT: false (0)

**Query** Could you please tell me whether IC50 recorded for CN1CCN(c2ccc(-c3ccn4c(-c5csc6nccnc56)cnc4c3)cc2)CC1 [Entry 60] is less than 50 nM?
**Result** true (1)

----------
biological target: ALK6/BMPR1B (Homo sapiens, UniProt O00238); assay: BMP Type 1 receptor assay, ALK6/BMPR1B; type: biochemical
Sequence (O00238 14-502): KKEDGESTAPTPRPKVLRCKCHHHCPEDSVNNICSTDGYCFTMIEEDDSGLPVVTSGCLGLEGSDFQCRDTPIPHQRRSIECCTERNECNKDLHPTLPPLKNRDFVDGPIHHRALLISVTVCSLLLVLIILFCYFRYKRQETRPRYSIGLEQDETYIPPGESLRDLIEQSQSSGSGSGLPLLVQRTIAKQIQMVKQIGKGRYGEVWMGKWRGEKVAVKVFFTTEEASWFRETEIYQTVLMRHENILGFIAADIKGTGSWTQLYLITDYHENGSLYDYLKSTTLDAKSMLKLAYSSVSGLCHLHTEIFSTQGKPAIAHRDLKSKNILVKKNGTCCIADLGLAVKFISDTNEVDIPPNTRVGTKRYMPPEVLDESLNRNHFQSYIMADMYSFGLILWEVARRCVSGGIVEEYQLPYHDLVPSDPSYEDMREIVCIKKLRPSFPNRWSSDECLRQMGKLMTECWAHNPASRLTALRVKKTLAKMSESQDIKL
Catalogue of IC50 values

As a guide, the following entries are already answered.
MOLECULAR_STRING: CN1CCN(c2ccc(-c3ccn4c(-c5ccnc6ccccc56)cnc4c3)cc2)CC1
IC50: 11 nM
//
MOLECULAR_STRING: CC(C)Oc1ccc(-c2ccn3c(-c4ccnc(Cl)c4)cnc3c2)cc1
IC50: 340 nM

Continue with the compound presented below.
**Query** Reported IC50, compound "CC(C)Oc1ccc(-c2ccn3c(-c4cn[nH]c4)cnc3c2)cc1" : ____
**Result** 895 nM

----------
molecular target: ALK2/ACVR1 (Homo sapiens, UniProt Q04771); experiment: BMP Type 1 receptor assay, ALK2/ACVR1; format: biochemical
Sequence (Q04771 21-509): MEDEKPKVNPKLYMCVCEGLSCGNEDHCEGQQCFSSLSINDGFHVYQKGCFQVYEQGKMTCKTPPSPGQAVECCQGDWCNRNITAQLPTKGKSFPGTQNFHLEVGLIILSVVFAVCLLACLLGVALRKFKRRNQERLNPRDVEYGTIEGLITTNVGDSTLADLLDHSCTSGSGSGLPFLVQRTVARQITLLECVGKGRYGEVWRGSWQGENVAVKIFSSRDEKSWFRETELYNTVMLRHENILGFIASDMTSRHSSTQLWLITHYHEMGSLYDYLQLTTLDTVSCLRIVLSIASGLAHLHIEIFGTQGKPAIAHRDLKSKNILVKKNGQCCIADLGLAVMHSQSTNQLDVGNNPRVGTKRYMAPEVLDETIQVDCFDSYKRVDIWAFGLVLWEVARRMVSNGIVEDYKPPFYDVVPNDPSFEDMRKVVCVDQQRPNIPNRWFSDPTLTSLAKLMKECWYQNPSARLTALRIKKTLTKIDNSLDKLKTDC
VALUE_KIND: IC50 (nM)
Numeric answer only, unit nM assumed.

MOLECULAR_STRING: c1ccc(-c2cnc3cc(-c4ccc(OCCN5CCOCC5)cc4)ccn23)cc1
IC50 (nM): 645

**Query** Missing value: IC50, ALK2/ACVR1 (Homo sapiens, UniProt Q04771), entry "CC(C)Oc1ccc(-c2ccn3c(-c4ccnc(Cl)c4)cnc3c2)cc1" . Fill in?
**Result** 155

**Query** Missing value: IC50, ALK2/ACVR1 (Homo sapiens, UniProt Q04771), entry "CC(C)Oc1ccc(-c2ccn3c(-c4cn[nH]c4)cnc3c2)cc1" . Fill in?
**Result** 1970

**Query** Missing value: IC50, ALK2/ACVR1 (Homo sapiens, UniProt Q04771), entry "Cc1cc(-c2cnc3cc(-c4ccc(OC(C)C)cc4)ccn23)ccn1" . Fill in?
**Result** 149

**Query** Missing value: IC50, ALK2/ACVR1 (Homo sapiens, UniProt Q04771), entry "Cc1cc(-c2cnc3cc(-c4ccc(N5CCN(C)CC5)cc4)ccn23)c2ccccc2n1" . Fill in?
**Result** 26.5
